- Tested on: XF 498 CNS
- procedure_text: NCI tumour cell line growth inhibition, 48 h
Please go through the items and note down their TGI.
Numbers only, in µM.

Example cases with answers are listed next.
CCCCN(CCCC)C(=Nc1ccccc1)N(CCCC)CCCC :: 5.95
O=C(Nc1nc2ncn(CCOC(=O)c3ccccc3)c2c(=O)[nH]1)c1ccccc1 :: 55.7

Req: # TGI lookup, item "COc1c(O)c2ccccc2c2cc(O)ccc12"
Resp: 5.13

----------
- System: UO-31 renal
- procedure_text: NCI tumour cell line growth inhibition, 48 h
experimental_endpoint: TGI

O=S(=O)(c1cc(Cl)ccc1Cl)N1CCN(S(=O)(=O)c2cc(Cl)ccc2Cl)CC1 :: > 100 µM
O=C(CCCCCCc1nc2ccc(Br)cc2[nH]1)NO :: 5.22 µM
CC(C)(C)c1cc(C(O)(C(=O)O)C(=O)O)cc(C(C)(C)C)c1O :: > 100 µM
COC(=O)C1=C(O)C(O)=C(C(=O)OC)CC1 :: > 100 µM
COc1ccc(C(=O)O/N=C2\CCCC\C2=C/c2ccccc2)cc1 :: > 100 µM

Now for another entry.
Req: # TGI lookup, item "C=Nc1ccc([N+](=O)[O-])cc1"
Resp: > 100 µM

----------
- System: MOLT-4 leukemia
- procedure_text: NCI tumour cell line growth inhibition, 48 h
Please go through the items and note down their TGI.

COc1ccc(/C=N\N2CC(=O)N3C4C=CC(CC4)N3C2=O)cc1 (stereo unspecified) :: > 100 µM
O=S(=O)(c1cc(Cl)ccc1Cl)N1CCN(S(=O)(=O)c2cc(Cl)ccc2Cl)CC1 :: > 100 µM
COc1cc[c]([Hg][Cl])cc1 :: 6.59 µM
CC(=O)OC1COC(N2C(=O)C(=O)c3c(C)cc(Cl)nc32)C(OC(C)=O)C1OC(C)=O (stereo unspecified) :: > 100 µM
FC(F)(F)c1ccc2nc(-c3nc(-c4ccccc4)n4ccccc34)[nH]c2c1 :: > 100 µM

Dear reader, for each entry below, please note its TGI.
1. COC(=O)C1=C(O)C(O)=C(C(=O)OC)CC1
2. CC(=O)Nc1ccc(S(=O)(=O)Nc2nnc(S(N)(=O)=O)s2)cc1
3. Cc1cc2c(cc1-c1cc3c(cc1C)C(C(C)C)=C(O)C(=O)/C3=C\Nc1nc(-c3ccccc3)cs1)/C(=C/Nc1nc(-c3ccccc3)cs1)C(=O)C(O)=C2C(C)C
4. COC(=O)C1=C(C)N2CCCOC2(C)C(C(=O)OC)C1c1cccc(Cl)c1 (stereo unspecified)
5. Cc1ncc(C(=O)Nc2ccc(CN3CCN(C)CC3)c(C(F)(F)F)c2)cc1C#Cc1c(N)ncc2ccc(C#N)cc12
6. [N-]=[N+]=Nc1ccc(S(=O)(=O)Oc2cc(OS(=O)(=O)c3ccc(N=[N+]=[N-])cc3)cc(OS(=O)(=O)c3ccc(N=[N+]=[N-])cc3)c2)cc1
7. Oc1nc(N/N=C/c2c[nH]c3ccccc23)[nH]c1/C=C1\C=Nc2ccccc21

Resp:
> 100 µM
> 100 µM
> 100 µM
45.1 µM
19.4 µM
> 100 µM
22.3 µM

Dear reader, for each entry below, please note its TGI.
1. CCOC(=O)c1cc2c(n1Cc1cccc(OC)c1)-c1oncc1CC2
2. Nc1ccc2c(c1)C1Oc3ccccc3CC1CO2 (stereo unspecified)
3. CC/C(Cl)=N\OC(=O)Nc1ccc(OC)cc1
4. O=c1c(Cl)nsnc1Cl
5. COC(=O)C(=O)C(C#N)c1cccc2ccccc12 (stereo unspecified)
6. Cc1ccccc1N=C(N)NC#N
7. COc1cc(C2c3cc4c(cc3C(O)C3CCC(=O)N23)OCO4)cc(OC)c1OC (stereo unspecified)

Resp:
1. > 100 µM
2. > 100 µM
3. 5.59 µM
4. 4.09 µM
5. > 100 µM
6. > 100 µM
7. > 100 µM

Dear reader, for each entry below, please note its TGI.
1. O=c1ccc2nc(-c3ccccc3)nn(-c3ccccc3)c-2c1
2. COc1ccc2oc(S(=O)(=O)N3CC(CCl)c4ccc([N+](=O)[O-])cc43)cc2c1 (stereo unspecified)

Resp:
1.97 µM
> 100 µM

----------
- Test system: RPMI-8226 leukemia
- procedure_text: NCI tumour cell line growth inhibition, 48 h
experimental_endpoint: GI50

COc1ccc(C(=O)CC2(O)C(=O)Nc3c(Cl)ccc(Cl)c32)cc1 (stereo not given) :: 2.64 µM
Cc1cc2c(-c3nc4ccccc4[nH]3)c(O)c(O)cc2c(O)c1-c1c(C)cc2c(-c3nc4ccccc4[nH]3)c(O)c(O)cc2c1O :: 0.0323 µM
CC/C(=C(\c1ccccc1)c1ccc(OCCN(C)C)cc1)c1ccccc1 :: 1.2 µM
Clc1ccc(Cl)c(N/N=C\c2c[nH]c3ccccc23)c1 :: 6.16 µM

Dear reader, for each entry below, please note its GI50.
1. COc1ccccc1/C=C1\COc2ccc(O)c(O)c2C1=O
2. COc1ccc(NC(=O)c2ccc(NC3=C(Cl)C(=O)N(Cc4ccccc4)C3=O)cc2)cc1
3. Cc1ccc(CCC(=O)Nc2ncc(Cc3cc(Cl)ccc3Cl)s2)o1
4. CCOC(=O)c1cc2c(n1Cc1cccc(OC)c1)-c1oncc1CC2
5. O=P(O)(O)OC1C(OP(=O)(O)O)C(OP(=O)(O)O)C(OP(=O)(O)O)C(OP(=O)(O)O)C1OP(=O)(O)O (stereo not given)
6. COc1ccc(CN2CCc3c(Cl)nc(N)nc3C2=O)c(OC)c1

Resp:
["0.235 µM", "2.38 µM", "0.335 µM", "3.52 µM", "> 2000 µM", "16 µM"]

----------
Please go through the items and note down their TGI.
- Test system: HCC-2998 colon
- procedure_text: NCI tumour cell line growth inhibition, 48 h
Answers are plain numbers, in µM.

COc1cc(/C=C2\C[C@H]3[C@@H]4CC=C5C[C@@H](N6CCCC6)CC[C@]5(C)[C@H]4CC[C@]3(C)[C@H]2O)cc(OC)c1OC :: 20.7
O=C(Nc1ccccc1)c1cc2c(cc1Cl)Sc1nccn1S2(=O)=O :: 37.7
CC(=O)O[C@@H]1C=CC(=O)C2(CC(=O)O[C@@H]2/C=C(\C)CCC=C(C)C)C1 (stereo partly drawn) :: 1.99

Dear reader, for each entry below, please note its TGI.
1. CCCCN(CCCC)C(=Nc1ccccc1)N(CCCC)CCCC
2. C=CCNC1=C2C[C@@H](C)C[C@@H](OC)C(OC(=O)CCCN(C)C)[C@H](C)/C=C(\C)[C@@H](OC(N)=O)[C@H](OC)/C=C\C=C(/C)C(=O)NC(=CC1=O)C2=O (stereo partly drawn)
3. FC(F)(F)c1ccc2nc(-c3nc(-c4ccccc4)n4ccccc34)[nH]c2c1
4. CCOC(=O)c1cc2c(n1Cc1cccc(OC)c1)-c1oncc1CC2
5. Clc1ccc(Cl)c(N/N=C\c2c[nH]c3ccccc23)c1
6. Cc1cc(Cl)n2c(nc3ccccc32)c1C#N
7. COc1cc([C@@H]2c3cc4c(cc3[C@H](OC3OC5COC(c6ccccc6)OC5C(O)C3O)[C@H]3COC(=O)[C@H]23)OCO4)cc(OC)c1OC (stereo partly drawn)

Resp:
1: 15.4; 2: 17.6; 3: 22.4; 4: 29.6; 5: 29.9; 6: 2.31; 7: 4.7

----------
Please go through the items and note down their TGI.
- Tested on: MDA-MB-435
- procedure_text: NCI tumour cell line growth inhibition, 48 h
Answers are plain numbers, in µM.

Example cases with answers are listed next.
O=C(NCC1Nc2ccncc2S(=O)(=O)N1)c1ccc(Br)cc1 (stereo unspecified) :: 37.2
O=C1C=Cc2c(Cl)sc(Cl)c21 :: 5.31
O=C(Nc1ccccc1)c1cc2c(cc1Cl)Sc1nccn1S2(=O)=O :: 42.2
CCN(CC)CCn1c(=N)n(CC(O)c2ccc(Cl)c(Cl)c2)c2ccccc21 (stereo unspecified) :: 3.49
COc1cc(-c2cc(-c3ccc(N(C)C)cc3)nc(N3CCC(O)CC3)c2C#N)cc(OC)c1OC :: 1.27
COc1cc(/C=C2\C[C@H]3[C@@H]4CC=C5C[C@@H](N6CCCC6)CC[C@]5(C)[C@H]4CC[C@]3(C)[C@H]2O)cc(OC)c1OC :: 18.5
COc1ccc(C(=O)CC2(O)C(=O)Nc3c(Cl)ccc(Cl)c32)cc1 (stereo unspecified) :: 0.649
FC(F)(F)c1ccc2nc(-c3nc(-c4ccccc4)n4ccccc34)[nH]c2c1 :: 31.6

Now for another entry.
Req: # TGI lookup, item "COc1ccc(C(=O)/C=C/c2ccc(Cl)cc2)cc1S(N)(=O)=O"
Resp: 15.6

----------
- Test system: SK-MEL-5 melanoma
- procedure_text: NCI tumour cell line growth inhibition, 48 h
experimental_endpoint: TGI (µM)
Give bare numbers, in µM.

Example cases with answers are listed next.
N/C(=N\N=C\c1ccc2c(c1)OCO2)NO :: 35.2
CCN1CCC(C(=O)Nc2n[nH]c3nnc(-c4cccc(F)c4F)cc23)CC1 :: 7.46

Req: # TGI lookup, item CC(C)c1ccc2c(c1)CCC1C(C)(C)[C@@H](O)CC[C@]21C (stereo partly specified)
Resp: 32.1

Origin of measurements: PubChem BioAssay (NCI)
